Where these numbers come from: paper PMC9710334

Assay: Plasma pharmacokinetics of OP-724 and C-82 after OP-724 infusion
Format: in vivo, human
Settings: plasma, single OP-724 iv infusion 380 mg/m^2/4 hours, Mean, N=1
MEASURE: OP-724 AUC0-24h (ng·h/mL)
Reply with just the number (in ng·h/mL).

Q: Note OP-724 AUC0-24h for the molecule shown: C[C@H]1[C@H]2N(C(=O)CN(C)N2C(=O)NCc2ccccc2)[C@@H](Cc2ccc(OP(=O)(O)O)cc2)C(=O)N1Cc1cccc2cccnc12
Ans: 10200
